Tested on: T47D
Assay: Growth inhibition of Homo sapiens (human) T47D cells at 10 uM after 48 hr by SRB assay
Type: functional
Conditions: read-out: GI
Quick list: inhibition of growth at 10 µM per entry.
The reply should contain only the number, in %.

Illustrative cases are given below, each with its answer.
If you can, please state the reported inhibition of growth at 10 µM value of O=C1CNCC(=O)N1Cc1ccncc1 .
4

If you can, please state the reported inhibition of growth at 10 µM value of O=C(c1cc2ccccc2[nH]1)N1CC(=O)N(Cc2cccs2)C(=O)C1 .
6

If you can, please state the reported inhibition of growth at 10 µM value of O=C(c1cc2ccccc2[nH]1)N1CC(=O)N(CCN2CCOCC2)C(=O)C1 .
16

If you can, please state the reported inhibition of growth at 10 µM value of O=C(c1cc2ccccc2[nH]1)N1CC(=O)N(Cc2cccnc2)C(=O)C1 .
12

If you can, please state the reported inhibition of growth at 10 µM value of O=C1CCCN1CCCN1C(=O)CN(C(=O)c2cc3ccccc3[nH]2)CC1=O .
14

---
If you can, please state the reported inhibition of growth at 10 µM value of O=C(c1cc2ccccc2[nH]1)N1CC(=O)N(Cc2ccncc2)C(=O)C1 .
21

If you can, please state the reported inhibition of growth at 10 µM value of O=C(c1cc2ccccc2[nH]1)N1CC(=O)N(CCc2cccs2)C(=O)C1 .
9

If you can, please state the reported inhibition of growth at 10 µM value of O=C(c1cc2ccccc2[nH]1)N1CC(=O)N(CCCn2ccnc2)C(=O)C1 .
0

If you can, please state the reported inhibition of growth at 10 µM value of O=C1CNCC(=O)N1CCCn1ccnc1 .
8

If you can, please state the reported inhibition of growth at 10 µM value of O=C1CNCC(=O)N1CCN1CCCC1 .
1

If you can, please state the reported inhibition of growth at 10 µM value of O=C1CNCC(=O)N1CCc1cccs1 .
16

If you can, please state the reported inhibition of growth at 10 µM value of O=C1CNCC(=O)N1C1CCCCC1 .
15
